Compiled from multiple publications: IC50 readings for UniProtKB P45452.
Could you please mark Met for values of IC50 below 2000 nM and Not met for values at or above it?

**Query** Lab note: confirm whether the reported IC50 for this compound is below 2000 nM, equality not counting. compound: `O=C(Cc1cccc(OCCCCO)c1)Nc1ccc2c(c1)C(=O)N(Cc1ccccc1)C2=O`
**Result** Met

**Query** Lab note: confirm whether the reported IC50 for this compound is below 2000 nM, equality not counting. compound: `O=C(O)CCCCOc1cccc(CC(=O)Nc2ccc3c(c2)C(=O)N(Cc2ccccc2)C3=O)c1`
**Result** Met

**Query** Lab note: confirm whether the reported IC50 for this compound is below 2000 nM, equality not counting. compound: `O=C(NCc1ccccc1)Nc1cccc2cnccc12`
**Result** Not met

**Query** Lab note: confirm whether the reported IC50 for this compound is below 2000 nM, equality not counting. compound: `O=C(Nc1cccc(S(=O)(=O)NC(P(=O)(O)O)P(=O)(O)O)c1)c1ccccc1`
**Result** Not met

**Query** Lab note: confirm whether the reported IC50 for this compound is below 2000 nM, equality not counting. compound: `Cc1ccc(CN(Cc2ccc(OCc3ccccc3)cc2)Cc2nc(C(=O)O)c[nH]2)cc1`
**Result** Not met

**Query** Lab note: confirm whether the reported IC50 for this compound is below 2000 nM, equality not counting. compound: `Cc1ccc(C(=O)Nc2ccc(S(=O)(=O)NC(P(=O)(O)O)P(=O)(O)O)cc2)cc1`
**Result** Not met

**Query** Lab note: confirm whether the reported IC50 for this compound is below 2000 nM, equality not counting. compound: `O=P(O)(O)C(Nc1nc2ccccc2s1)P(=O)(O)O`
**Result** Not met

**Query** Lab note: confirm whether the reported IC50 for this compound is below 2000 nM, equality not counting. compound: `O=C(Nc1ccc(S(=O)(=O)NC(P(=O)(O)O)P(=O)(O)O)cc1)c1ccc2ccccc2c1`
**Result** Not met

**Query** Lab note: confirm whether the reported IC50 for this compound is below 2000 nM, equality not counting. compound: `O=C(NCc1ccc(NC(=O)c2ccccc2)cc1)Nc1cccc2cnccc12`
**Result** Not met

**Query** Lab note: confirm whether the reported IC50 for this compound is below 2000 nM, equality not counting. compound: `O=C(O)c1csc(CN(Cc2ccc(OCc3ccccc3)cc2)C(c2ccccc2)c2ccccc2)n1`
**Result** Met

**Query** Lab note: confirm whether the reported IC50 for this compound is below 2000 nM, equality not counting. compound: `O=C(O)c1csc(CN(Cc2ccc(F)cc2)Cc2ccc(OCc3ccccc3)cc2)n1`
**Result** Met

**Query** Lab note: confirm whether the reported IC50 for this compound is below 2000 nM, equality not counting. compound: `CNC(=O)CCCCOc1cccc(CC(=O)Nc2ccc3c(c2)C(=O)N(Cc2ccccc2)C3=O)c1`
**Result** Met

**Query** Lab note: confirm whether the reported IC50 for this compound is below 2000 nM, equality not counting. compound: `O=C(O)c1csc(CN(Cc2ccc(F)cc2)Cc2ccc(OCc3cccnc3)cc2)n1`
**Result** Not met

**Query** Lab note: confirm whether the reported IC50 for this compound is below 2000 nM, equality not counting. compound: `O=P(O)(O)C(Nc1nc2ccc(Cl)cc2s1)P(=O)(O)O`
**Result** Met

**Query** Lab note: confirm whether the reported IC50 for this compound is below 2000 nM, equality not counting. compound: `O=C(Cc1ccccc1)Nc1ccc2nc(NC(P(=O)(O)O)P(=O)(O)O)sc2c1`
**Result** Not met

**Query** Lab note: confirm whether the reported IC50 for this compound is below 2000 nM, equality not counting. compound: `O=C(O)c1csc(CN(Cc2ccc(F)cc2)Cc2ccc(OCc3ccncc3)cc2)n1`
**Result** Met

**Query** Lab note: confirm whether the reported IC50 for this compound is below 2000 nM, equality not counting. compound: `COCc1ccccc1NCc1ccc([C@H]2[C@@H](O)CCCc3cncn32)c(-c2ccccc2Cl)c1`
**Result** Not met

**Query** Lab note: confirm whether the reported IC50 for this compound is below 2000 nM, equality not counting. compound: `O=C(O)c1c[nH]c(CN(Cc2ccc(F)cc2)Cc2ccc(OCc3ccccc3)cc2)n1`
**Result** Met
